# target_system: T1, CD81 (UniProt P60033 1-236, limits assumed)
# T1 construct: whole, on cells; also called CD81 receptor
# T1 sequence (looked up): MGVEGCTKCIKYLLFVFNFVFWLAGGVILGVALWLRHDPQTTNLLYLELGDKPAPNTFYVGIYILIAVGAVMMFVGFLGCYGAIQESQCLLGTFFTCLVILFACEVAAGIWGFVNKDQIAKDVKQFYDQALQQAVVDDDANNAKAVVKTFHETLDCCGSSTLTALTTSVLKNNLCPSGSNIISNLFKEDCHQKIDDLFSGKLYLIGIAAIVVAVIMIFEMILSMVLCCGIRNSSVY
# protocol_details: cell ELISA;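 note: antibody binding to HuH7 cells expressing CD81 versus a CD81-negative HuH7 control line, bound antibody detected by secondary reagent, absorbance at 450 nm with 620 nm reference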
measurement_type: ELISA data

binder	endpoint_result
CD81K04 HC GG-02-hVH_1_69 / LC GG-06-hVK_1_39 (antibody, V domains shown, human constant region) VH: QVQLVQSGAEVKKPGSSVKVSCKASGYTFSSSWMNWVRQAPGQGLEWMGRIYSGDGDAIYNQKFQGRVTITADESTSTAYMELSSLRSEDTAVYYCAREGKTGDLLLRSWGQGTLVTVSS VL: DIQMTQSPSSLSASVGDRVTITCRASKSVSTSIYSYLNWYQQKPGKAPKLLIYYASYLQSGVPSRFSGSGSGTDFTLTISSLQPEDFATYYCQHSREFPYTFGQGTKLEIK	0.08
CD81K04 HC K04_JA-13-hVH_1_3 / LC CD81K04 (antibody, V domains shown, human constant region) VH: QVQLVQSGAEVKKPGASVKVSCKASGYTFSSSWMNWVRQAPGQRLEWMGRIYSGDGDAIYNGKFKGRVTITRDTSASTAYMELSSLRSEDTAVYYCAREGKTGDLLLRSWGQGTLVTVSS VL: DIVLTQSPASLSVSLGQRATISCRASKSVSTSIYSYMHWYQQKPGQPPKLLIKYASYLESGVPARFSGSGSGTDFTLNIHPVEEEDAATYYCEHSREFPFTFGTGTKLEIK	0.974
CD81K04 HC JA_GG-13-hVH_1_69 / LC JA_GG-09-hVK_4_1 (antibody, V domains shown, human constant region) VH: QVQLVQSGAEVKKPGSSVKVSCKASGGTFSSSWMNWVRQAPGQGLEWMGRIYSGDGDAIYAQKFQGRVTITADESTSTAYMELSSLRSEDTAVYYCAREGKTGDLLLRSWGQGTLVTVSS VL: DIVMTQSPDSLAVSLGERATINCKSSKSVSTSIYSYMHWYQQKPGQPPKLLIKYASTRESGVPDRFSGSGSGTDFTLTISSLQAEDVAVYYCEHSREFPFTFGQGTKLEIK	0.776
CD81K04 HC K04_JA_GG-17-hVH_1_3 / LC JA_GG-07-hVK_7_3 (antibody, V domains shown, human constant region) VH: QVQLVQSGAEVKKPGASVKVSCKASGYTFSSSWMNWVRQAPGQRLEWMGRIYSGDGDTIYSQKFQGRVTITADTSASTAYMELSSLRSEDTAVYYCAREGKTGDLLLRSWGQGTLVTVSS VL: DIVLTQSPASLAVSPGQRATITCRASKSVSTSIYSYMHWYQQKPGQPPKLLIKYASNKDTGVPARFSGSGSGTDFTLTINPVEANDAANYYCLHSREFPYTFGQGTKLEIK	0.219
CD81K04 HC GG-03-hVH_1_69 / LC CD81K04 (antibody, V domains shown, human constant region) VH: QVQLVQSGAEVKKPGSSVKVSCKASGYTFSSSWMNWVRQAPGQGLEWMGRIYSGDGDAIYAQKFQGRVTITADESTSTAYMELSSLRSEDTAVYYCAREGKTGDLLLRSWGQGTLVTVSS VL: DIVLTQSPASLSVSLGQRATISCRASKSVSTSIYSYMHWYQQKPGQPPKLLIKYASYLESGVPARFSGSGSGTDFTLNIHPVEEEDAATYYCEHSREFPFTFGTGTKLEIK	0.843
CD81K04 HC JA_GG-16-hVH_1_3 / LC GG-06-hVK_1_39 (antibody, V domains shown, human constant region) VH: QVQLVQSGAEVKKPGASVKVSCKASGYTFSSSWMNWVRQAPGQGLEWMGRIYSGDGDAIYNGKFKGRVTITADTSASTAYMELSSLRSEDTAVYYCAREGKTGDLLLRSWGQGTLVTVSS VL: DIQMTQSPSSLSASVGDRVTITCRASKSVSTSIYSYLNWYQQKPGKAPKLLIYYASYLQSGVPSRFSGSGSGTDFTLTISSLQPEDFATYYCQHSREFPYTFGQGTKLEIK	0.08
CD81K04 HC JA_GG-14-hVH_1_69-GA / LC JA_GG-07-hVK_7_3 (antibody, V domains shown, human constant region) VH: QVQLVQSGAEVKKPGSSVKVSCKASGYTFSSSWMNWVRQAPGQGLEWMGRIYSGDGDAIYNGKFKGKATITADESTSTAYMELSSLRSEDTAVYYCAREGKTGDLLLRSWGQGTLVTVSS VL: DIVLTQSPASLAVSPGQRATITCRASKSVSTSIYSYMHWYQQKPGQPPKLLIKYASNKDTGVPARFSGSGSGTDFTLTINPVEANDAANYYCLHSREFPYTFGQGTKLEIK	0.125
